Hey, just so you know, these numbers are from PubChem BioAssay AID1159580.

# PROTOCOL DETAILS: chemical genetic growth profiling, strain panel (AID 1159580);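 note: tested at 20 µM; growth read once vehicle control cultures reached saturation at 30 °C; lower values mean less growth of the strain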
# DETAILS: S. cerevisiae deletion strains, growth OD, locus YLR085C, strain ARP6
About 2,000 (36%) of roughly 5,500 compounds were called active. Inconclusive results (about 18%) are left out. Cut-off read from the data, not from the text of the source: active = normalized growth mostly below about 0.91 (no sharp cut-off); inconclusive = no clear call, values can overlap the other calls; inactive = mostly above about 0.92. The list shows a part of the results.
Outcome codes: active, inactive

[[record]]
molecule = "O=C(O)/C=C/C(=O)Nc1ccc(-n2nc(C(F)(F)F)cc2C(F)(F)F)cc1"
discrete_label = "inactive"

[[record]]
molecule = "S=c1[nH]nc(SCCSc2n[nH]c(=S)s2)s1"
discrete_label = "inactive"

[[record]]
molecule = "Cc1nc(-c2nnc(Sc3ccc(C(F)(F)F)cc3[N+](=O)[O-])n2C)cs1"
discrete_label = "inactive"

[[record]]
molecule = "Cc1noc(C)c1-c1nc(-c2cc(C(F)(F)F)cc(C(F)(F)F)c2)no1"
discrete_label = "inactive"

[[record]]
molecule = "CC(C)(C)OC(=O)C(C)(C)S(=O)(=O)c1ccc(Cl)cc1"
discrete_label = "inactive"

[[record]]
molecule = "CC(OCc1ccccc1)C(NC(=O)OC(C)(C)C)C(N)=O (stereo unspecified)"
discrete_label = "inactive"

[[record]]
molecule = "O=[N+]([O-])c1cnc(Sc2n[nH]c(-c3cccs3)n2)s1"
discrete_label = "active"

[[record]]
molecule = "CS/C(N)=N\\N=C/c1c(F)cccc1Cl"
discrete_label = "inactive"

[[record]]
molecule = "CCCCCc1ccc(C(=O)O/N=C\\c2c(Cl)cccc2Cl)cc1"
discrete_label = "inactive"

[[record]]
molecule = "O=[N+]([O-])c1ccc(S(=O)(=O)c2ccc(Cl)cc2)cc1O"
discrete_label = "inactive"

[[record]]
molecule = "CCCc1nc(-c2ccccn2)[nH]c(=O)c1CC1CC1"
discrete_label = "active"

